Target: menin-MLL interaction (Menin MLL 4-43) (Homo sapiens)
Sequence (O00255 whole entry): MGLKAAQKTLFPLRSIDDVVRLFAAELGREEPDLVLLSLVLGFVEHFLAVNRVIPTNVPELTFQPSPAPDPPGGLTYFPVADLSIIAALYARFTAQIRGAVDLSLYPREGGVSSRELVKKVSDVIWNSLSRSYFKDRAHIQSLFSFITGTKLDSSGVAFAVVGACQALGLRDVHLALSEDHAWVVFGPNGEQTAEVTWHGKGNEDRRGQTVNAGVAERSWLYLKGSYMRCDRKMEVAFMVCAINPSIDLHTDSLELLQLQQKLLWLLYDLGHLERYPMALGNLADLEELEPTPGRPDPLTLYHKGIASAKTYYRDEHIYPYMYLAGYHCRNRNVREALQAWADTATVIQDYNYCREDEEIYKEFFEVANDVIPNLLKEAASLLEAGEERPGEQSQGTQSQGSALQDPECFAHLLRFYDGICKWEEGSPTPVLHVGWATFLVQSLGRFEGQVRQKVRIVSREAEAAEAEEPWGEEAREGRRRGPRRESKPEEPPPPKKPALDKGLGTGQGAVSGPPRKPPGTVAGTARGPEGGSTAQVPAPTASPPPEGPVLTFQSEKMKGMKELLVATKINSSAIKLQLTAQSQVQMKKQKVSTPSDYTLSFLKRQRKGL
Experiment: Fluorescence polarization (FP) competition assay
Format: binding
Conditions: fluorescence polarization assay; read-out: Menin MLL 4-43 IC50
parameter_measured: IC50

Illustrative cases are given below, each with its answer.
{"columns": ["compound", "parameter_measured", "endpoint_value"],
 "data": [
  ["Cc1c(CN2CCC(Nc3ncnc4sc(CC(F)(F)F)cc34)CC2)ccc2c1cc(C#N)n2CC12CC(NC(=O)C3CCCN3C)(C1)C2 (stereo not drawn) [Compound 58]", "IC50", "< 50 nM"],
  ["CCC(=O)NC12CC(Cn3c(C#N)cc4c(C)c(CN5CCC(Nc6nc(N)nc7sc(CC(F)(F)F)cc67)CC5)ccc43)(C1)C2 [Compound 54]", "IC50", "< 50 nM"]
]}

Consider the compound shown here: Cc1c(CN2CCC(Nc3ncnc4sc(CC(F)(F)F)cc34)CC2)ccc2c1cc(C#N)n2CC12CC(NC(=O)C3(N)CC3)(C1)C2 [Compound 60] What is its recorded IC50?
50 to 250 nM

Follow-up item: Cc1c(CN2CCC(Nc3ncnc4sc(CC(F)(F)F)cc34)CC2)ccc2c1cc(C#N)n2CC12CC(NC(=O)c3ccc[nH]3)(C1)C2 [Compound 34]
50 to 250 nM

Follow-up item: Cc1c(CN2CCC(Nc3ncnc4sc(CC(F)(F)F)cc34)CC2)ccc2c1cc(C#N)n2CCC12CC(N)(C1)C2 [Compound 11]
250 to 1000 nM

Follow-up item: Cc1c(CN2CCC(Nc3ncnc4sc(CC(F)(F)F)cc34)CC2)ccc2c1cc(C#N)n2CC12CC(NC(=O)C(C)(C)N)(C1)C2 [Compound 59]
< 50 nM
